Sourced from ChEMBL document CHEMBL1157707

Catalogue of compounds with associated IC50
Target: Phosphatidylinositol 4,5-bisphosphate 3-kinase catalytic subunit gamma isoform (Homo sapiens)
Sequence (P48736 whole entry, canonical isoform): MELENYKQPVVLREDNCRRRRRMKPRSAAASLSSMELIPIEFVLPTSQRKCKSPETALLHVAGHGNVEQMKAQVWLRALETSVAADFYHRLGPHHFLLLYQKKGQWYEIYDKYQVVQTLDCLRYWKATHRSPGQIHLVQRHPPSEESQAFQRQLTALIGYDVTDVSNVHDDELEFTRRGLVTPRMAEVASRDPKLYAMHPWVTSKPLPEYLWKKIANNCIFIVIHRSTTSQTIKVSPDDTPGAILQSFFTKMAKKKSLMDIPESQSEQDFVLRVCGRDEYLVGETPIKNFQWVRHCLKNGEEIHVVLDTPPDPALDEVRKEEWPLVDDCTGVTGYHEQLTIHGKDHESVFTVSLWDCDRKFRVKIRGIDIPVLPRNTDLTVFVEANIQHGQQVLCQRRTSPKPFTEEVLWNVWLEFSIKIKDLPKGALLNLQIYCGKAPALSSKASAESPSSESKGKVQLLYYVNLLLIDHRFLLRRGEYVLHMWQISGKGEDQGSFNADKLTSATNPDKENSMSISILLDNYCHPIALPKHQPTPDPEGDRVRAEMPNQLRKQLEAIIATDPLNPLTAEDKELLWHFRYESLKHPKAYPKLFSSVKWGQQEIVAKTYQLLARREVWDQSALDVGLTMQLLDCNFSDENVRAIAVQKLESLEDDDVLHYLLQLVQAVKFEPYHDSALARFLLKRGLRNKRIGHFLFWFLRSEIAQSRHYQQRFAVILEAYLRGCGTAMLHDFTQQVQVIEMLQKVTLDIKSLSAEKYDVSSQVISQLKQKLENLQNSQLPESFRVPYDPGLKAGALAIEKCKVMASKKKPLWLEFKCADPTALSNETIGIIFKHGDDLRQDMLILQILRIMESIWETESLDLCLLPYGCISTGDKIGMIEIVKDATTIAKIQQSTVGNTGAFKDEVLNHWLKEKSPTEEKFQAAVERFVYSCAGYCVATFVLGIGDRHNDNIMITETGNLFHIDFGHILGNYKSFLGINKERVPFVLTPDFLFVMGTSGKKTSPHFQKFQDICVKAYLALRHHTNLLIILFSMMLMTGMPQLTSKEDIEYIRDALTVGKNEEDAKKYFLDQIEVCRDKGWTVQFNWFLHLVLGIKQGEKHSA
Experiment: Inhibition of human PI3Kgamma by fluorescence polarization format assay

>  <Line Notation>
CCn1nnc2c(N3CCOCC3)nc(-c3ccc(NC(=O)Nc4ccc(C(=O)NCCc5ccccn5)cc4)cc3)nc21

>  <Unit Of Measurement>
µM

>  <IC50>
0.022

$$$$
>  <Line Notation>
CCn1nnc2c(N3CCOCC3)nc(-c3ccc(NC(=O)Nc4ccc(C(N)=O)cc4)cc3)nc21

>  <Unit Of Measurement>
µM

>  <IC50>
0.0122

$$$$
>  <Line Notation>
CCn1nnc2c(N3CCOCC3)nc(-c3ccc(NC(=O)Nc4ccc(C(=O)NCCN(C)C)cc4)cc3)nc21

>  <Unit Of Measurement>
µM

>  <IC50>
0.012

$$$$
>  <Line Notation>
CC(C)n1nnc2c(N3CCOCC3)nc(-c3ccc(NC(=O)Nc4ccc(CO)cc4)cc3)nc21

>  <Unit Of Measurement>
µM

>  <IC50>
0.0248

$$$$
>  <Line Notation>
O=C(Nc1ccc(-c2nc(N3CCOCC3)c3nnn(C4CC4)c3n2)cc1)Nc1cccnc1

>  <Unit Of Measurement>
µM

>  <IC50>
0.0485

$$$$
>  <Line Notation>
CCNC(=O)c1ccc(NC(=O)Nc2ccc(-c3nc(N4CCOCC4)c4nnn(CC)c4n3)cc2)cc1

>  <Unit Of Measurement>
µM

>  <IC50>
0.0172

$$$$

* * *

Catalogue of compounds with associated IC50
Target: Serine/threonine-protein kinase mTOR (Homo sapiens, UniProt P42345)
Test: Inhibition of mTOR by DELFIA
Outcome Measure: IC50 (nM)

>  <Line Notation>
CCCCNC(=O)c1ccc(NC(=O)Nc2ccc(-c3nc(N4CCOCC4)c4nnn(CC)c4n3)cc2)cc1

>  <Quantitative Readout>
2.7

$$$$
>  <Line Notation>
CCn1nnc2c(N3CCOCC3)nc(-c3ccc(NC(=O)Nc4ccnc(C)c4)cc3)nc21

>  <Quantitative Readout>
21

$$$$
>  <Line Notation>
O=C(Nc1ccncc1)Nc1ccc(-c2nc(N3CCOCC3)c3nnn(C4CC4)c3n2)cc1

>  <Quantitative Readout>
0.84

$$$$
>  <Line Notation>
Cn1nnc2c(N3CCOCC3)nc(-c3ccc(NC(=O)Nc4cccnc4)cc3)nc21

>  <Quantitative Readout>
2.95

$$$$
>  <Line Notation>
CCn1nnc2c(N3CCOCC3)nc(-c3ccc(NC(=O)Nc4cccnc4)cc3)nc21

>  <Quantitative Readout>
0.89

$$$$
>  <Line Notation>
CCn1nnc2c(N3CCOCC3)nc(-c3ccc(NC(=O)Nc4ccc(C(=O)OC)cc4)cc3)nc21

>  <Quantitative Readout>
2.55

$$$$
>  <Line Notation>
CC(C)n1nnc2c(N3CCOCC3)nc(-c3ccc(NC(=O)Nc4ccc(N(C)C)cc4)cc3)nc21

>  <Quantitative Readout>
1.6

$$$$
>  <Line Notation>
CCn1nnc2c(N3CCOCC3)nc(-c3ccc(NC(=O)Nc4ccc(C(N)=O)cc4)cc3)nc21

>  <Quantitative Readout>
0.39

$$$$
>  <Line Notation>
CCn1nnc2c(N3CCOCC3)nc(-c3ccc(NC(=O)Nc4ccc(C(=O)N(C)C)cc4)cc3)nc21

>  <Quantitative Readout>
0.75

$$$$
